Below is a list of entries, each paired with its recorded kon value.
- experimental.system: T1, cyIL-18Rβ-HisAvi (cynomolgus monkey)
- T1 construct: Soluble analyte in SPR; also called cyno IL-18Rβ; cynomolgus monkey IL-18Rβ
- T1 chain: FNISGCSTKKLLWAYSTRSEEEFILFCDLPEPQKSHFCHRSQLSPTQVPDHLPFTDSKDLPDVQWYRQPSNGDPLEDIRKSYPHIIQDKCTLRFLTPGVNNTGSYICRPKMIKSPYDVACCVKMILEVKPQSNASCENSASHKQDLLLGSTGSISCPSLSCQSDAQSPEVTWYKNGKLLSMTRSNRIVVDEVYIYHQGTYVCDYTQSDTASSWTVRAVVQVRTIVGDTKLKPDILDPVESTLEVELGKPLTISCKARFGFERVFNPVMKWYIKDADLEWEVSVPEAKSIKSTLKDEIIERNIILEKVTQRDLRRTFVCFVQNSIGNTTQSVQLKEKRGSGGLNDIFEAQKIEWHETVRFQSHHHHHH
- assay.name: SPR T200, mAb on anti-hFc, 37C, pH 7.4
Dear colleague, please return just the value in M⁻¹ s⁻¹, with no unit written.

| binder | measure | recorded.result |
| --- | --- | --- |
| P20-V2 (antibody, human IgG1, kappa, V domains shown, Variant of P20) VH: QVQLQESGPGLVKPSETLSLTCTVSGGSINNYYWSWIRQPPGKGLEWIGYIFYSGTTNYNPSLKSRVTISVDTSKNQFSLKLSSVTAADTAVYYCARDVGIAARNSYYYVMDVWGQGTTVTVSS VL: AIQLTQSPSSLSASVGDRVTITCRASQGISSALAWYQQKPGKAPKFLIYEGSSLESGVPSRFSGSGSGTDFTLTISSLQPEDFATYYCQQFNSYPITFGQGTRLEIKR | kon | 180000 |
| P20-V1 (antibody, human IgG1, kappa, V domains shown, Variant of P20) VH: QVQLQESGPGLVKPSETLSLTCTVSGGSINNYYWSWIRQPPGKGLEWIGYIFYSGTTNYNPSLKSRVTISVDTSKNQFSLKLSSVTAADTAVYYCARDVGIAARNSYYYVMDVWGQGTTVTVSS VL: AIQLTQSPSSLSASVGDRVTITCRASQGISSALAWYQQKPGKAPKFLIYEASSLESGVPSRFSGSGSGTDFTLTISSLQPEDFATYYCQQFNSYPITFGQGTRLEIKR | kon | 200000 |
| P21-V1 (antibody, human IgG1, kappa, V domains shown, Variant of P21) VH: QVQLQESGPGLVKPSETLSLTCTVSGGSISNYYWTWIRQPPGKGLEWIGYISDSGSTNYNPSLKSRVTISVDTSKNQFSLKLSSVTAADTAVYYCARETIVVRGFYFYVMDVWGQGTTVTVSS VL: AIQLTQSPSSLSASVGDRVTITCRASQGISSALAWYQQKPGKAPKLLIYEASNWESGVPSRFSGSGSGTDFTLTISSLQPEDFATYYCQQFNSYPWTFGQGTKVEIKR | kon | 540000 |
| P20-V3 (antibody, human IgG1, kappa, V domains shown, Variant of P20) VH: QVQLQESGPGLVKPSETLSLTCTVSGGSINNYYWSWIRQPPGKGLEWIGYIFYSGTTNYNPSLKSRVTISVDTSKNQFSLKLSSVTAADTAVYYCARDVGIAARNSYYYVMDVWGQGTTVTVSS VL: AIQLTQSPSSLSASVGDRVTITCRASQGISSALAWYQQKPGKAPKFLIYGASSLESGVPSRFSGSGSGTDFTLTISSLQPEDFATYYCQQFNSYPITFGQGTRLEIKR | kon | 200000 |

Moving on to another binder below.
Record request: kon value, item P21 (antibody, human IgG1, kappa, V domains shown, Human IgG) VH: QVQLQQSGPGLVKPSETLSLTCTVSGGSISNYYWTWIRQPPGKGLEWIGYISDSGSTNYNPSLKSRVTISVDTSKNQFSLKLSSVTAADTAVYYCARETIVVRGFYFYVMDVWGQGTTVTVSS VL: AIQLTQSPSSLSASVGDRVTITCRASQGISSALAWYQQRPGKAPKLLIYDASNWESGVPSRFSGSGSGTDFTLTISSLQPEDFATYYCQQFNSYPWTFGQGTKVEIKR
150000

Recorded values, source patent US20250230251A1.
